target: human HER3 endogenously expressed on human cancer cells (SK-Br-3, BT-474, MCF7) (human, UniProt P21860 20-1342); test: cell-based or functional assay

binder: MOR12615 (antibody, human IgG1, lambda, V domains shown, Tested as IgG) VH: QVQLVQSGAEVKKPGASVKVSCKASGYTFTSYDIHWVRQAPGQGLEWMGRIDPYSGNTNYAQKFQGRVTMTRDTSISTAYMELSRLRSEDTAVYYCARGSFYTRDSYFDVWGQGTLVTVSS VL: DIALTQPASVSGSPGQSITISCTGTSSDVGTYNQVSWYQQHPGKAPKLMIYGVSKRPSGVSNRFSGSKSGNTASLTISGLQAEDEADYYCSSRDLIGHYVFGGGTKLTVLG
unitTag: %
BT-474 pAkt % inhibition: 63
--
binder: MOR13654 (antibody, human IgG1, lambda, V domains shown, Tested as IgG) VH: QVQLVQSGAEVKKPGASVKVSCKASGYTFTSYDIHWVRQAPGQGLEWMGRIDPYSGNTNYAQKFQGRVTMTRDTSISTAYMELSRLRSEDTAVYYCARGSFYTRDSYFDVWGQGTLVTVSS VL: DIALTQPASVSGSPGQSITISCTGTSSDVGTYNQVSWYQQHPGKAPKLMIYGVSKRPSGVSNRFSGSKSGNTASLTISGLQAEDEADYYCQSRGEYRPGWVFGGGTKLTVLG
unitTag: %
BT-474 pAkt % inhibition: 58
--
binder: MOR12604 (antibody, V domains shown, Tested as IgG) VH: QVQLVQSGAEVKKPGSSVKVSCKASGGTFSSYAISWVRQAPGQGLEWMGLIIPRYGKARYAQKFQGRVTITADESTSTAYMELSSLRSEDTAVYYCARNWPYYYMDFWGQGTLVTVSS VL: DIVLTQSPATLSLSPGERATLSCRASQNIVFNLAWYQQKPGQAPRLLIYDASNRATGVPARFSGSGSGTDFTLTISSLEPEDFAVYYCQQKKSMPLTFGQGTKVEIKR
unitTag: %
BT-474 pAkt % inhibition: 70
--
binder: MOR12603 (antibody, human IgG1, kappa, V domains shown, Tested as IgG) VH: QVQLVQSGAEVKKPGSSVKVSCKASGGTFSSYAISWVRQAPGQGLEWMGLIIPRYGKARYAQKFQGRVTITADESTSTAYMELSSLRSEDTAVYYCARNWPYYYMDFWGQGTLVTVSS VL: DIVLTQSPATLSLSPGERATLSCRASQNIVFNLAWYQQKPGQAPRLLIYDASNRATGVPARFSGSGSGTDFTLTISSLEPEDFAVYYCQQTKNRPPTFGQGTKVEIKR
unitTag: %
BT-474 pAkt % inhibition: 77
--
binder: MOR13658 (antibody, human IgG1, lambda, V domains shown, Tested as IgG) VH: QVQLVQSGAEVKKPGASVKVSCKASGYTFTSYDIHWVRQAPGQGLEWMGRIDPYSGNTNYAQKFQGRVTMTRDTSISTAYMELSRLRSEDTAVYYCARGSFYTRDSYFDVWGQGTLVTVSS VL: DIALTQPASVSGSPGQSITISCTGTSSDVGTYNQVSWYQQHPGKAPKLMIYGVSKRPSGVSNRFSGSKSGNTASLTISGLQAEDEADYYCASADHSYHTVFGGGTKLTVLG
unitTag: %
BT-474 pAkt % inhibition: 56
--
binder: MOR12606 (antibody, human IgG1, kappa, V domains shown, Tested as IgG) VH: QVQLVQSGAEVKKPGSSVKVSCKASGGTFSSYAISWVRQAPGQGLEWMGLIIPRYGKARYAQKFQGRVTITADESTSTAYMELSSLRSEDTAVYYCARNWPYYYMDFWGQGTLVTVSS VL: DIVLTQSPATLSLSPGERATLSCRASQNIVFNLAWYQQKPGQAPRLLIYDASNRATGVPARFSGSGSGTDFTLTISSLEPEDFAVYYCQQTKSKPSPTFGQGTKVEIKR
unitTag: %
BT-474 pAkt % inhibition: 77
--
binder: MOR13657 (antibody, human IgG1, lambda, V domains shown, Tested as IgG) VH: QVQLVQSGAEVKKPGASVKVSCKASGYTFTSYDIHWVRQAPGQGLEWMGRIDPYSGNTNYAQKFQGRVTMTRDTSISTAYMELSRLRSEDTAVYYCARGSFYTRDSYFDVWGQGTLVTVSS VL: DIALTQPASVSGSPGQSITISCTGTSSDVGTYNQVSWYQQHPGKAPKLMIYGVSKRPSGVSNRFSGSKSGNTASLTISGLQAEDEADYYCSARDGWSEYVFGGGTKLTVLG
unitTag: %
BT-474 pAkt % inhibition: 53
--
binder: MOR12605 (antibody, human IgG1, kappa, V domains shown, Tested as IgG) VH: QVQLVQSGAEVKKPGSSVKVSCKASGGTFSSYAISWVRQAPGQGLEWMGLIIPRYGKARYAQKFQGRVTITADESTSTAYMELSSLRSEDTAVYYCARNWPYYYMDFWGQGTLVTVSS VL: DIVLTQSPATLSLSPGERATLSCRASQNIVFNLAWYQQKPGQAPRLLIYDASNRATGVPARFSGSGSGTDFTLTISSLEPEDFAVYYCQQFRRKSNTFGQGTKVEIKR
unitTag: %
BT-474 pAkt % inhibition: 67
--
binder: MOR13655 (antibody, human IgG1, lambda, V domains shown, Tested as IgG) VH: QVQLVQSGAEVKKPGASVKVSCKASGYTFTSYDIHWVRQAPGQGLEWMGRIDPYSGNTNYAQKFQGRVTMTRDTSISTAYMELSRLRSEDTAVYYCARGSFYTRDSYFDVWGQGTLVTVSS VL: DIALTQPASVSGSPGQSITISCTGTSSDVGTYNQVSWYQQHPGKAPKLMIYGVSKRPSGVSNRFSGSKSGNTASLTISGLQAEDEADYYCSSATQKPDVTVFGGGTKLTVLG
unitTag: %
BT-474 pAkt % inhibition: 50
--
binder: MOR13666 (antibody, human IgG1, lambda, V domains shown, Tested as IgG) VH: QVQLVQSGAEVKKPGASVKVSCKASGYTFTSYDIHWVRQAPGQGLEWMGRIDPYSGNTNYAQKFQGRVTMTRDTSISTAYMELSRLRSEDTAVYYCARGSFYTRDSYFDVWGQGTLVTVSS VL: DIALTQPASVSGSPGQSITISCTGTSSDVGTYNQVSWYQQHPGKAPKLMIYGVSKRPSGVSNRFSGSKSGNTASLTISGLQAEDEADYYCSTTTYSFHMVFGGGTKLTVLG
unitTag: %
BT-474 pAkt % inhibition: 50
